- target.of.assay: T1, recombinant human IL-12 (rhIL-12) (human, UniProt P29459 23-219; P29460 23-328)
- T1 sequence (looked up) 1: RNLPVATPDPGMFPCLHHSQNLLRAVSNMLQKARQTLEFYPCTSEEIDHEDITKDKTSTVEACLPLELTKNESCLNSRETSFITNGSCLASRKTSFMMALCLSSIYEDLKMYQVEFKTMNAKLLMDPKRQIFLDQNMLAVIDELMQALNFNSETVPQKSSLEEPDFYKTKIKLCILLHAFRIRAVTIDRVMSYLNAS
- T1 sequence (looked up) 2: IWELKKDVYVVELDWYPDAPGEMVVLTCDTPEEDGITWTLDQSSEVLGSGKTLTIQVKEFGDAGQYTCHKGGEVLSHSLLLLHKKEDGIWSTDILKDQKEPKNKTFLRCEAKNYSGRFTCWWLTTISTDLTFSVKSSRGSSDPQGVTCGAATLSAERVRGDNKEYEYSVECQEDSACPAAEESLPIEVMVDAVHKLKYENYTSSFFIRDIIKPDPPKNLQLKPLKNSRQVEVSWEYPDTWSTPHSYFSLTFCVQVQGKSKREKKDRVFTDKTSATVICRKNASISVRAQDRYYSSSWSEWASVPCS
- procedure.text: cell-based or functional assay
We begin with a simple list: items and their reported PHA assay IC50 (M) p70:p40 1:0.
Give just the number in M; leave the unit off.

PHA assay IC50 (M) p70:p40 1:0 recorded for this binder, AO3 IgG1 (antibody, V domains shown, IgG1) VH: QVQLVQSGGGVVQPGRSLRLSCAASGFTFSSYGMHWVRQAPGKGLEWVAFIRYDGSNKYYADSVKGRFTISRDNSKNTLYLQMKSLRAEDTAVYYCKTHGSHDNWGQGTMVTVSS VL: SYVLTQPPSVSGTPGQRVTISCSGGRSNIGSNTVKWYQQLPGTAPKLLIYGNDQRPSGVPDRFSGSKSGTSASLAITGVQAEDEADYYCQSYDRGTHPLTMFGTGTKVTVLG , is 2.5e-10

PHA assay IC50 (M) p70:p40 1:0 recorded for this binder, Y61 IgG (antibody, V domains shown, whole IgG1; also called Y61-IgG1) VH: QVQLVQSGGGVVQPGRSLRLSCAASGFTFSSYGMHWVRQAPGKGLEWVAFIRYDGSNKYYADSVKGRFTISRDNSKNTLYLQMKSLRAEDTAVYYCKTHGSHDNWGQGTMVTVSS VL: SYVLTQPPSVSGTPGQRVTISCSGGRSWIGSNTVKWYQQLPGTAPKLLIYGNDQRPSGVPDRFSGSKSGTSASLAITGVQAEDEADYYCQSYDRGTHPALLFGTGTKVTVLG , is 1.8e-10

PHA assay IC50 (M) p70:p40 1:0 recorded for this binder, J695 (antibody, human IgG1, V domains shown, human IgG1 with lambda light chain) VH: QVQLVESGGGVVQPGRSLRLSCAASGFTFSSYGMHWVRQAPGKGLEWVAFIRYDGSNKYYADSVKGRFTISRDNSKNTLYLQMNSLRAEDTAVYYCKTHGSHDNWGQGTMVTVSS VL: QSVLTQPPSVSGAPGQRVTISCSGSRSNIGSNTVKWYQQLPGTAPKLLIYYNDQRPSGVPDRFSGSKSGTSASLAITGLQAEDEADYYCQSYDRYTHPALLFGTGTKVTVLG , is 1e-11
